# Test system: morningglory (Ipomoea coccinea)
# Protocol notes: Test C pre-/postemergence greenhouse test, plant response rating 0-100
# Assay type: in vivo
# Applied conditions: Postemergence, 250 g ai/ha; scale 0 to 100

# Structure, Plant response rating, Morningglory
rows = [
    ("Fc1cccc(NN=C(c2ccccc2)c2c[nH]nc2-c2cc(Cl)cc(Cl)c2)c1", 0),
    ("O=Cn1cc(C(=O)c2ccccc2)c(-c2cc(Cl)cc(Cl)c2)n1", 0),
    ("Cn1cc(C(=O)c2cccs2)c(-c2cc(Cl)cc(Cl)c2)n1", 10),
    ("CC(C)n1cc(C(=O)c2ccccc2)c(-c2cc(Cl)cc(Cl)c2)n1", 5),
]

* * *

# System: dayflower (Virginia (VA) dayflower, Commelina virginica)
# Protocol notes: Test E pre-/postemergence greenhouse test, plant response rating 0-100
# Assay type: in vivo
# Applied conditions: Postemergence, 500 g ai/ha; scale 0 to 100
Quantity name: Plant response rating, Dayflower, VA

# Structure, Quantity name, Measured result
rows = [
    ("O=C(c1ccccc1)c1cn(S(=O)(=O)CCl)nc1-c1cc(Cl)cc(Cl)c1", "Plant response rating, Dayflower, VA", 0),
    ("Cn1cc(C(=O)c2cccs2)c(-c2cc(Cl)cc(Cl)c2)n1", "Plant response rating, Dayflower, VA", 0),
    ("ON=C(c1ccccc1)c1c[nH]nc1-c1cc(Cl)cc(Cl)c1", "Plant response rating, Dayflower, VA", 0),
    ("Fc1ccc(NN=C(c2ccccc2)c2c[nH]nc2-c2cc(Cl)cc(Cl)c2)cc1", "Plant response rating, Dayflower, VA", 0),
]

* * *

# Tested on: cocklebur (common cocklebur, Xanthium strumarium)
# Protocol notes: Test C postemergence greenhouse test, plant response rating 0-100
# Type: in vivo
# Applied conditions: 125 g ai/ha
# Plant response rating (0 to 100), Cocklebur listing for each entry below
Quantity name: Plant response rating (0 to 100), Cocklebur

# Structure, Measured result
rows = [
    ("C#CCn1cc(C(=O)c2ccccc2)c(-c2cc(Cl)cc(Cl)c2)n1", 55),
    ("CCn1cc(C(=NN2CCCC2)c2ccccc2)c(-c2cc(Cl)cc(Cl)c2)n1", 15),
    ("C=CCn1cc(C(=O)c2ccccc2)c(-c2cc(Cl)cc(Cl)c2)n1", 20),
    ("CCn1cc(C(=O)c2cccs2)c(-c2cc(Cl)cc(Cl)c2)n1", 5),
]

* * *

Catalogue of Plant response rating (0 to 100 scale), Velvetleaf readings, one per entry.
# Tested on: velvetleaf (Abutilon theophrasti)
# Protocol notes: Test A pre-/postemergence greenhouse herbicide test, visual injury rating 0-100
# Type: in vivo
# Applied conditions: Preemergence, 1000 g ai/ha
Quantity name: Plant response rating (0 to 100 scale), Velvetleaf

# Structure, Measured result
records = [
    ("ON=C(c1ccccc1)c1c[nH]nc1-c1cc(Br)cc(Br)c1", 0),
    ("CCn1cc(C(=O)c2ccccc2)c(-c2cc(F)cc(Br)c2)n1", 90),
    ("Fc1ccccc1NN=C(c1ccccc1)c1c[nH]nc1-c1cc(Cl)cc(Cl)c1", 80),
    ("Clc1ccc(NN=C(c2ccccc2)c2c[nH]nc2-c2cc(Cl)cc(Cl)c2)cc1", 80),
    ("Fc1cccc(NN=C(c2ccccc2)c2c[nH]nc2-c2cc(Cl)cc(Cl)c2)c1", 90),
]

* * *

Each item that follows carries a reported Plant response rating, Ragweed.
# Tested on: ragweed (common ragweed, Ambrosia elatior)
# Protocol notes: Test C pre-/postemergence greenhouse test, plant response rating 0-100
# Assay type: in vivo
# Applied conditions: Postemergence, 250 g ai/ha; scale 0 to 100

# Compound, Plant response rating, Ragweed
measured = [
    ("Cn1cc(C(=O)c2ccccc2)c(-c2cc(Br)cc(Br)c2)n1 [Compound 53]", 10),
    ("CCn1cc(C(=O)c2ccccc2)c(-c2cc(Br)cc(Br)c2)n1 [Compound 38]", 35),
    ("O=C(c1ccccc1)c1cn(S(=O)(=O)CCl)nc1-c1cc(Cl)cc(Cl)c1 [Compound 1]", 65),
    ("ON=C(c1ccccc1)c1c[nH]nc1-c1cc(Cl)cc(Cl)c1 [Compound 50]", 45),
    ("Fc1cccc(NN=C(c2ccccc2)c2c[nH]nc2-c2cc(Cl)cc(Cl)c2)c1 [Compound 58]", 50),
]

* * *

# System: arrowleaf sida (Sida rhombifolia)
# Protocol notes: Test E pre-/postemergence greenhouse test, plant response rating 0-100
# Type: in vivo
# Applied conditions: Sida rhombifolia, post-emergence; Postemergence, 500 g ai/ha; scale 0 to 100 (0 no effect, 100 complete control)
Quantity name: pest or weed control at 500 g/ha (%)

# Compound, Measured result
records = [
    ("COCC(=O)n1cc(C(=O)c2ccccc2)c(-c2cc(Cl)cc(Cl)c2)n1 [Compound 16]", 100),
    ("CCOC(OCC)(c1ccccc1)c1c[nH]nc1-c1cc(Cl)cc(Cl)c1 [Compound 14]", 95),
    ("COC(OC)(c1ccccc1)c1c[nH]nc1-c1cc(Cl)cc(Cl)c1 [Compound 13]", 90),
    ("O=C(c1ccccc1)c1cn(CO)nc1-c1cc(Cl)cc(Cl)c1 [Compound 15]", 98),
]

* * *

In this section, each of the compounds is paired with its reported Plant response rating (0 to 100), Bermudagrass.
# Test system: bermudagrass (Cynodon dactylon)
# Protocol notes: Test C postemergence greenhouse test, plant response rating 0-100
# Type: in vivo
# Applied conditions: 62 g ai/ha
Quantity name: Plant response rating (0 to 100), Bermudagrass

# Structure, Measured result
data = [
    ("ON=C(c1ccccc1)c1c[nH]nc1-c1cc(Cl)cc(Cl)c1", 0),
    ("Clc1cc(Cl)cc(-c2n[nH]cc2C(=NN2CCCC2)c2ccccc2)c1", 0),
    ("Fc1cccc(NN=C(c2ccccc2)c2c[nH]nc2-c2cc(Cl)cc(Cl)c2)c1", 0),
    ("C=CCn1cc(C(=O)c2ccccc2)c(-c2cc(Cl)cc(Cl)c2)n1", 5),
]

* * *

# Tested on: surinam grass (Brachiaria decumbens)
# Protocol notes: Test C postemergence greenhouse test, plant response rating 0-100
# Type: in vivo
# Applied conditions: 500 g ai/ha, scale 0 to 100
List of Plant response rating, Surinam Grass values.

# Molecule, Test target, Plant response rating, Surinam Grass
rows = [
    ("CCn1cc(C(=O)c2cccs2)c(-c2cc(Cl)cc(Cl)c2)n1 [Compound 18]", "surinam grass (Brachiaria decumbens)", 10),
    ("Cn1cc(C(=O)c2ccccc2)c(-c2cc(Br)cc(Br)c2)n1 [Compound 53]", "surinam grass (Brachiaria decumbens)", 0),
    ("Fc1cccc(NN=C(c2ccccc2)c2c[nH]nc2-c2cc(Cl)cc(Cl)c2)c1 [Compound 58]", "surinam grass (Brachiaria decumbens)", 0),
    ("Fc1ccc(NN=C(c2ccccc2)c2c[nH]nc2-c2cc(Cl)cc(Cl)c2)cc1 [Compound 35]", "surinam grass (Brachiaria decumbens)", 0),
    ("Cn1cc(C(=O)c2cccs2)c(-c2cc(Cl)cc(Cl)c2)n1 [Compound 17]", "surinam grass (Brachiaria decumbens)", 5),
]

* * *

# System: lambsquarters (Chenopodium album)
# Protocol notes: Test C pre-/postemergence greenhouse test, plant response rating 0-100
# Assay type: in vivo
# Applied conditions: Postemergence, 62 g ai/ha
Plant response rating (0 to 100), Lambsquarters reference
Quantity name: Plant response rating (0 to 100), Lambsquarters

# Structure, Measured result
rows = [
    ("CCn1cc(C(=O)c2ccccc2)c(-c2cc(Br)cc(Br)c2)n1", 75),
    ("Fc1cccc(NN=C(c2ccccc2)c2c[nH]nc2-c2cc(Cl)cc(Cl)c2)c1", 70),
    ("O=Cn1cc(C(=O)c2ccccc2)c(-c2cc(Cl)cc(Cl)c2)n1", 90),
    ("O=C(c1cncc(F)c1)c1c[nH]nc1-c1cc(Cl)cc(Cl)c1", 10),
]

* * *

Listing of entries alongside the reported Morningglory plant response rating.
# Test system: morningglory (Ipomoea coccinea)
# Protocol notes: Test E pre-/postemergence greenhouse test, plant response rating 0-100
# Type: in vivo
# Applied conditions: Preemergence, 125 g ai/ha, scale 0 to 100

# Structure, Morningglory plant response rating
records = [
    ("O=C(c1ccccc1)c1cn(CO)nc1-c1cc(Cl)cc(Cl)c1", 0),
    ("O=C(c1ccccc1)c1cn(S(=O)(=O)CCl)nc1-c1cc(Cl)cc(Cl)c1", 0),
    ("O=Cn1cc(C(=O)c2ccccc2)c(-c2cc(Cl)cc(Cl)c2)n1", 0),
    ("COCC(=O)n1cc(C(=O)c2ccccc2)c(-c2cc(Cl)cc(Cl)c2)n1", 20),
    ("O=C(c1ccccc1)c1cn(S(=O)(=O)CC(F)(F)F)nc1-c1cc(Cl)cc(Cl)c1", 0),
    ("CCn1cc(C(=O)c2ccccc2)c(-c2cc(Cl)cc(Cl)c2)n1", 0),
]
